For each of the compounds below, state its Ki.
system: human leukocyte elastase (HLE) (Homo sapiens)
Construct: The HLE enzyme used in these studies may be obtained according to B. R. Viscarello et al. in Preparative Biochemistry, Vol. 13 (1983); The enzyme was isolated by a cited preparative procedure. b8 says HLE is released from the granules of polymorphonuclear leukocytes
Sequence (P08246 30-267): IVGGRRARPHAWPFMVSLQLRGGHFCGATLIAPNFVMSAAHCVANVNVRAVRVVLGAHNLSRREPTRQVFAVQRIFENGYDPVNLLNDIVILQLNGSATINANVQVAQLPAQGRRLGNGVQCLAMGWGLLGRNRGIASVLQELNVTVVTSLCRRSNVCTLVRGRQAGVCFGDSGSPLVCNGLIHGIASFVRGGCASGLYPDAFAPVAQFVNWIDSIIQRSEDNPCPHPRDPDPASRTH
method: Inhibition of human leukocyte elastase acting on a peptide p-nitroanilide substrate, Ki from Dixon plot
assay.conditions: room temperature; 16.6% (v/v) DMSO, pH 8.1; substrate methoxysuccinyl-alanyl-alanylprolyl-valine-p-nitroanilide 1.6×10^-4 molar; read-out: Ki, dissociation constant of the inhibitor-HLE complex
Protocol: The potency of compounds of the invention to act as elastase inhibitors was determined by the ability of a compound of the invention to inhibit the action of human leukocyte elastase (HLE) on a low molecular weight peptide substrate. The potency of an inhibitor is evaluated by obtaining a kinetic determination of the dissociation constant, Ki, of the complex formed from the interaction of the inhibitor with HLE. […]
Starred links: 1 amine or outer side, 2 acyl side, 3 side chain; linkers in the order of their positions; H or OH if unused. Residues, ends and D or L forms follow the SMILES beside them. *: point of attachment. Suc = O=C(CCC(=O)[*:2])[*:1]; MeOSuc = COC(=O)CCC(=O)*; Cbz = O=C(OCc1ccccc1)*; Boc = CC(C)(C)OC(=O)*; CO = O=C([*:1])[*:2]
One number for each entry, in nM.

Solved cases below.
COC(=O)CCC(=O)N[C@@H](CCCCNC(=O)OCc1ccccc1)C(=O)N[C@H](C(=O)N1CCC[C@H]1C(=O)N[C@H](C=O)C(C)C)C(C)C [Example 8b] (MeOSuc-K(Cbz)VPV-aldehyde)    6
COC(=O)[C@H](CC(C)C)NC(=O)N[C@H](C(=O)N1CCC[C@H]1C(=O)N[C@H](C=O)C(C)C)C(C)C [Example 32g] ({OMe-Leu-CO}-Val-Pro-Val-aldehyde)    94
CC(C)[C@H](NC(=O)[C@H](CCCCNC(=O)OCc1ccccc1)NC(=O)CCC(=O)O)C(=O)N1CCC[C@H]1C(=O)N[C@H](C=O)C(C)C [Example 5b] (Suc-K(Cbz)VPV-aldehyde)    30

Form field, Ki with human leukocyte elastase (HLE) (Homo sapiens), item CC(C)[C@H](NC(=O)[C@H](CCCCNC(=O)OCc1ccccc1)NC(=O)OC(C)(C)C)C(=O)N1CCC[C@H]1C(=O)N[C@H](C=O)C(C)C [Example 1f] (Boc-K(Cbz)VPV-aldehyde) : 15

Every entry's value here was drawn from patent US4596789A.
